- Test Target: JAK3 JH1 JH2 (human)
- Assay Name: radiometric filter-binding kinase assay, Kinase HotSpot
- Run Parameters: compound 0.5 µM; ATP 10 µM
Measure: residual activity (%)

# Smiles Text, Measure, Readout Number
records = [
    ("CCN(CC)CCNC(=O)c1c(C)[nH]c(/C=C2\\C(=O)Nc3ccc(Cl)cc32)c1C", "residual activity", 39.3),
    ("Cc1ccc(Nc2nccc(N(C)c3ccc4c(C)n(C)nc4c3)n2)cc1S(N)(=O)=O", "residual activity", 95.3),
    ("CC[n+]1c(/C=C/N(C)c2ccccc2)n(-c2ccccc2)c2ccc(-c3nc4ccccc4s3)cc21", "residual activity", 106),
    ("COc1cc2ncnc(Nc3cccc(Cl)c3)c2cc1OC", "residual activity", 91.6),
]

###

- Test Target: DAPK2 (human)
- Assay Name: radiometric filter-binding kinase assay, Kinase HotSpot
- Run Parameters: compound 0.5 µM; ATP 10 µM

# Smiles Text, residual activity, %
measured = [
    ("Nc1ccc2ncnc(NCCc3ccc(Oc4ccccc4)cc3)c2c1", 80.4),
    ("O=c1cc(N2CCOCC2)oc2c1ccc1ccccc12", 115),
    ("Cc1ccc(Nc2nccc(N(C)c3ccc4c(C)n(C)nc4c3)n2)cc1S(N)(=O)=O", 93),
]

###

- Test Target: SRPK2 (human)
- Assay Name: radiometric filter-binding kinase assay, Kinase HotSpot
- Run Parameters: compound 0.5 µM; ATP 10 µM

# Molecule, Test Target, Measurement Units, residual activity
measured = [
    ("CNC(=O)c1cc(Oc2ccc(NC(=O)Nc3ccc(Cl)c(C(F)(F)F)c3)cc2)ccn1", "SRPK2 (human)", "%", 102),
    ("O=C1NC(=O)C(c2cn(CCCn3ccnc3)c3ccccc23)=C1Nc1ccccc1", "SRPK2 (human)", "%", 96.2),
    ("O=C(Nc1cccc(Nc2nccc(Nc3cccc(C(F)(F)F)c3)n2)c1)C1CC1", "SRPK2 (human)", "%", 104),
    ("CC(C)N(CCC(=O)c1ccc2ccccc2c1)Cc1ccccc1", "SRPK2 (human)", "%", 99.1),
    ("CCOC(=O)c1c(C)[nH]c(/C=C2\\C(=O)Nc3ccccc32)c1C", "SRPK2 (human)", "%", 92.3),
    ("Nc1ncnc2[nH]nc(Nc3ccc(F)cc3)c12", "SRPK2 (human)", "%", 97.1),
    ("CO[C@H]1CC2CC[C@@H](C)[C@@](O)(O2)C(=O)C(=O)N2CCCC[C@H]2C(=O)OC([C@H](C)C[C@@H]2CC[C@@H](O)[C@H](OC)C2)CC(=O)[C@H](C)/C=C(\\C)[C@@H](O)[C@@H](OC)C(=O)[C@H](C)C[C@H](C)/C=C/C=C/C=C/1C (stereo not given in full)", "SRPK2 (human)", "%", 104),
    ("CC#CC(=O)Nc1cc2c(Nc3ccc(F)c(Cl)c3)ncnc2cn1", "SRPK2 (human)", "%", 69.2),
    ("O=C1NC(=O)c2c1c1c3ccccc3n3c1c1c2c2ccccc2n1C1CCC3O1", "SRPK2 (human)", "%", 107),
    ("CC(=O)c1ccc(N2CCOCC2)cc1O", "SRPK2 (human)", "%", 98.6),
]

Source listed as the kinase profiling compilation of Christmann-Franck et al. (2016).
